These entries and their values trace back to patent US11098041B2.

Data export: IC50 values recorded with full-length human BTK (Homo sapiens (Human)).
measured metric: IC50

1) O=C1c2c(F)cc(C3CC3)cc2OCCN1c1cccc(-c2ccnc3[nH]c(-c4cccnc4)nc23)c1CO [Example 2] | < 100 nM
2) CN(C)c1nc(C(=O)NCc2ccc(-c3ccnc4[nH]c(-c5cnn(C)c5)nc34)cc2F)no1 [Example 57, 2,2,2-trifluoroacetate] | < 100 nM
3) Cc1ccc(-n2ccn(-c3cccc(-c4ccnc5[nH]c(-c6ccc(C(=O)N7CCOCC7)cc6)nc45)c3C)c2=O)cc1 [Example 95] | 1000 to 5000 nM
4) Cn1cc(-c2nc3c(-c4ccc(CNCc5cccc(C(C)(C)C)c5)c(F)c4)ccnc3[nH]2)cn1 [Example 180] | > 5000 nM

###

Molecular target: BTK C481S (His-TEV-hsBTK(328-659)(C481S)) (Homo sapiens (Human), UniProt Q06187, C481S)
Sequence (Q06187 328-659 C481S): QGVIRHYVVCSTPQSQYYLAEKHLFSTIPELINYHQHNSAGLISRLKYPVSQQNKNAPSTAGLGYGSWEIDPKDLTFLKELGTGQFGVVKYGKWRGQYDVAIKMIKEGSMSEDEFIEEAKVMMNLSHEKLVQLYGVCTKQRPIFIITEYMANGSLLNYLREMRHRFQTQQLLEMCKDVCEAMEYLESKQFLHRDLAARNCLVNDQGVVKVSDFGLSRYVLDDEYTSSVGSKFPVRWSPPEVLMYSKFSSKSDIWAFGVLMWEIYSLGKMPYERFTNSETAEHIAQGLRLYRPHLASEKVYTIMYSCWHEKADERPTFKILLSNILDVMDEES
Assay: Assay B: microfluidic off-chip mobility shift assay against BTK C481S enzyme
Conditions: BTK C481S mutant
pIC50: −log10 of the molar value.
measured metric: pIC50

1. Cn1cc(-c2nc3c(-c4ccc5c(c4)CN(C(=O)c4nc(C(C)(C)C)no4)CC5)ccnc3[nH]2)cn1 [Example 155] | < 5.30
2. Cn1cc(-c2nc3c(-c4ccc(C(C)(C)NC(=O)c5ccc(C(C)(C)C)cc5)c(F)c4)ccnc3[nH]2)cn1 [Example 106] | 6.00 to 7.00
3. CC(C)(O)CCN1Cc2cc(-c3ccnc4[nH]c(-c5ccc(C(=O)N6CCOCC6)cc5)nc34)ccc2C1=O [Example 114] | < 5.30
4. O=C(NCc1ccc(-c2ccnc3[nH]c(-c4cnn(CCN5CCOCC5)c4)nc23)cc1F)c1nnc(C2CCOCC2)o1 [Example 122] | 6.00 to 7.00
5. Cn1cc(-c2nc3c(-c4ccc(CNC(=O)C5CC(OC(C)(C)C)C5)c(F)c4)ccnc3[nH]2)cn1 (stereo not shown) [Example 60] | 6.00 to 7.00
6. Cc1c(NC(=O)c2ccc(C(C)(C)C)cc2)cccc1-c1ccnc2[nH]c(-c3ccc(C(=O)O)cc3)nc12 [Example 153] | > 7.00
7. Cn1cc(-c2nc3c(-c4ccc(CN5Cc6cc(C7CC7)sc6C5=O)c(F)c4)ccnc3[nH]2)cn1 [Example 93] | > 7.00
8. Cn1ccc(-c2nc3c(-c4ccc(CNC(=O)c5nnc(C(C)(C)C)o5)c(F)c4)ccnc3[nH]2)cc1=O [Example 141] | > 7.00
9. CC(C)(C)c1nnc(C(=O)NCc2ccc(-c3ccnc4[nH]c(C5=CCNCC5)nc34)cc2F)o1 [Example 140] | > 7.00
10. CN(C)c1ccc(-c2nc3c(-c4ccc(CNC(=O)c5ccc(C(C)(C)C)cc5)c(F)c4)ccnc3[nH]2)nc1 [Example 89] | > 7.00
11. Cn1cc(-c2nc3c(-c4ccc(C5CCCN5C(=O)c5ccc(C(C)(C)C)cc5)cc4)ccnc3[nH]2)cn1 (stereo not shown) [Example 121] | > 7.00
12. CC1CN(c2ccc(-c3nc4c(-c5ccc(CNC(=O)c6noc(C(C)(C)C)n6)c(F)c5)ccnc4[nH]3)nc2)CC(C)O1 (stereo not shown) [Example 81] | > 7.00
13. CC(C)(C)c1nc(C(=O)NCc2ccc(-c3ccnc4[nH]c(-c5cnn(CCO)c5)nc34)cc2F)no1 [Example 70] | > 7.00
14. CN1CCN(Cc2ccc(-c3nc4c(-c5ccc(CNC(=O)c6noc(C(C)(C)C)n6)c(F)c5)ccnc4[nH]3)cc2)CC1 [Example 71] | > 7.00
15. Cn1cc(-c2nc3c(-c4cc(F)cc(N5CCn6c(cc7c6CC(C)(C)C7)C5=O)c4CO)ccnc3[nH]2)cn1 [Example 10] | > 7.00
16. COc1ccc(-c2nc3c(-c4ccc(CN5CCOc6cc(C7CC7)cc(F)c6C5=O)c(F)c4)ccnc3[nH]2)nc1 [Example 40] | > 7.00
17. CN(C)c1ccc(-c2nc3c(-c4cccc(N5CCOc6cc(C7CC7)cc(F)c6C5=O)c4CO)ccnc3[nH]2)cc1 [Example 39] | > 7.00
18. Cn1cc(-c2nc3c(-c4ccc(CNC(=O)c5cc(C(C)(C)C)on5)c(F)c4)ccnc3[nH]2)cn1 [Example 67] | > 7.00
19. CN(C)c1ccc(-c2nc3c(-c4cccc(N5CCOc6cc(C7CC7)cc(F)c6C5=O)c4CO)ccnc3[nH]2)nc1 [Example 41] | > 7.00
20. CN(C)c1ccc(-c2nc3c(-c4ccc(CNC(=O)N5CC(OC(C)(C)C)C5)c(F)c4)ccnc3[nH]2)nc1 [Example 90] | 6.00 to 7.00
21. Cn1cc(-c2nc3c(-c4ccc(CNC(=O)c5ccc(C(C)(C)C)cc5)cc4)ccnc3[nH]2)cn1 [Example 110] | > 7.00
22. CN(C)c1ccc(-c2nc3c(-c4ccc(CNC(=O)c5noc(C(C)(C)C)n5)c(F)c4)ccnc3[nH]2)cc1 [Example 145] | > 7.00
23. Cn1cc(-c2nc3c(-c4ccc(CNC(=O)c5nnc(C(C)(C)C)o5)c(F)c4)ccnc3[nH]2)cn1 [Example 111] | > 7.00
24. CN1CC=C(c2nc3c(-c4ccc(CNC(=O)c5nnc(C(C)(C)C)o5)c(F)c4)ccnc3[nH]2)CC1 [Example 139] | > 7.00
25. CC(C)(C)c1nnc(C(=O)NCc2ccc(-c3ccnc4[nH]c(-c5cnn(C6COC6)c5)nc34)cc2F)s1 [Example 125] | > 7.00
26. CC(C)(C)c1ccc(C(=O)Nc2cccc(-c3ccnc4[nH]c(-c5ccc(C(=O)N6CCOCC6)cc5)nc34)c2CO)cc1 [Example 46] | 5.30 to 6.00
27. CC(C)(C)c1noc(C(=O)NCc2ccc(-c3ccnc4[nH]c(C5CCNC(=O)C5)nc34)cc2F)n1 (stereo not shown) [Example 31] | 6.00 to 7.00
28. O=C1c2c(F)cc(C3CC3)cc2OCCN1c1cccc(-c2ccnc3[nH]c(-c4cccnc4)nc23)c1CO [Example 2] | > 7.00

###

Biological target: full-length human BTK (Homo sapiens (Human), UniProt Q06187)
Sequence (Q06187 whole entry): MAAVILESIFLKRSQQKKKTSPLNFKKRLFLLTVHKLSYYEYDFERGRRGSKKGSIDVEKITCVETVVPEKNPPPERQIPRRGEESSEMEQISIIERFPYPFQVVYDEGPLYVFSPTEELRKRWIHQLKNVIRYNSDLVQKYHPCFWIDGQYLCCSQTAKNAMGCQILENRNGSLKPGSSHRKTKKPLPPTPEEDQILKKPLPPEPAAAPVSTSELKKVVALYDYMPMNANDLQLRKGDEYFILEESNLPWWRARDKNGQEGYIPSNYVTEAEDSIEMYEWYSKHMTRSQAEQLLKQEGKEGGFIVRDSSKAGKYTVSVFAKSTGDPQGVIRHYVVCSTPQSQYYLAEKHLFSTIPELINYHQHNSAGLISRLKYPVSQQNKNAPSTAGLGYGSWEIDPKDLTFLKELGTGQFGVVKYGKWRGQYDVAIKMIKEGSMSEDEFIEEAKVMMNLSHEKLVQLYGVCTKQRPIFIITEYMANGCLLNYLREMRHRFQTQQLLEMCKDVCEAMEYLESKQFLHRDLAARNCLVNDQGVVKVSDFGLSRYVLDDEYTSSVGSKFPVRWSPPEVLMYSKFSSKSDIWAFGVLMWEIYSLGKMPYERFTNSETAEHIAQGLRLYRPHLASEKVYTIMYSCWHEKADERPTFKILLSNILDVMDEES
# IC50 per entry
measured metric: IC50

1) Cn1cc(-c2nc3c(-c4ccc(C5(NC(=O)c6ccc(C(C)(C)C)cc6)CC5)cc4)ccnc3[nH]2)cn1 | < 100 nM
2) Cn1cc(-c2nc3c(-c4ccc(CNC(=O)c5ccc(C(C)(C)C)cc5)c(C(F)(F)F)c4)ccnc3[nH]2)cn1 | < 100 nM
3) Cn1cc(-c2nc3c(-c4ccc(CNCc5ccc(F)c(F)c5)c(F)c4)ccnc3[nH]2)cn1 | > 5000 nM
4) CN1CC=C(c2nc3c(-c4ccc(CNC(=O)c5nnc(C(C)(C)C)o5)c(F)c4)ccnc3[nH]2)CC1 | < 100 nM
5) Cc1c(NC(=O)c2ccc(C(C)(C)C)cc2)cccc1-c1ccnc2[nH]c(-c3ccc(C(=O)O)cc3)nc12 | < 100 nM
6) CC(C)(C)c1ccc(C(=O)Nc2cccc(-c3ccnc4[nH]c(-c5ccc(C(=O)N6CCOCC6)cc5)nc34)c2CO)cc1 | 1000 to 5000 nM
7) Cc1cc(-c2ccnc3[nH]c(-c4ccc(OCC(O)CO)cn4)nc23)ccc1CN1CCOc2cc(C3CC3)cc(F)c2C1=O (stereo not drawn) | < 100 nM
8) CC(C)(C)c1nnc(C(=O)NCc2ccc(-c3ccnc4[nH]c(C5=CCNCC5)nc34)cc2F)o1 | < 100 nM
9) CCn1cc(-c2nc3c(-c4ccc(CNC(=O)c5cc6c(s5)CCCC6)c(F)c4)ccnc3[nH]2)cn1 | < 100 nM
10) Cc1cc(CNC(=O)c2noc(C(C)(C)C)n2)c(F)cc1-c1ccnc2[nH]c(-c3cnn(C)c3)nc12 | < 100 nM
11) CN(C)c1ccc(-c2nc3c(-c4ccc(CNC(=O)c5nc(C(C)(C)C)no5)c(F)c4)ccnc3[nH]2)nc1 | < 100 nM
12) CC(C)(C)c1noc(C(=O)NCc2ccc(-c3ccnc4[nH]c(C5CCNC(=O)C5)nc34)cc2F)n1 (stereo not drawn) | 1000 to 5000 nM
13) Cn1cc(-c2nc3c(-c4ccc(CNC(=O)CCCC(C)(C)C)c(F)c4)ccnc3[nH]2)cn1 | < 100 nM
14) Cn1cc(-c2nc3c(-c4ccc(CN5CCOc6cc(C7CC7)cc(F)c6C5=O)nc4)ccnc3[nH]2)cn1 | < 100 nM
15) Cn1cc(-c2nc3c(-c4ccc(CNCc5ccc(C(C)(C)C)cc5)c(F)c4)ccnc3[nH]2)cn1 | > 5000 nM
